# experiment: in vitro
experimental_endpoint: CC50 at 48 h (µM)
Note: unit µM is implicit; provide only the numeric part.

Illustrative cases are given below, each with its answer.
CC(=O)OCCCCCOc1cc(O)c2c(=O)c(-c3ccc(O)cc3)coc2c1 : 57.6
C=CCOc1cc(O)c2c(=O)c(-c3ccc(OC(=O)c4ccccc4OC(C)=O)cc3)coc2c1 : 21.5
CCCCCCCCCCCCCCCC(=O)Oc1cc(O)c2c(=O)c(-c3ccc(O)cc3)coc2c1 : 23.8
O=c1c(-c2ccc(O)cc2)coc2cc(OCCO)cc(O)c12 : 21.7

Consider "O=c1c(-c2ccc(O)cc2)coc2cc(OCCCO)cc(O)c12" . Its measured CC50 at 48 h is 32.5
